System Tested: Recombinant STAT3 protein (STAT3(G127-I722)) (Homo sapiens)
Construct: Recombinant STAT3 protein (STAT3(G127-I722))
Experimental Details: STAT3 Fluorescence Polarization (FP) Assay
Setup Conditions: STAT3(G127-I722) 25 nM, probe 5-FAM-GpYLPQTV-NH2 2 nM, 45-minute incubation
Listing: IC50 of selected compounds

Worked set:
{"columns": ["Compound", "System Tested", "IC50"],
 "data": [
  ["N#C[C@@H]1CN(C(=O)[C@@H]2CC[C@@H]3CCN(CC(F)F)C[C@H](NC(=O)c4ccc5ccc(C(F)(F)P(=O)(O)O)cc5c4)C(=O)N32)C[C@H]1c1ccccc1 (single isomer, unassigned) [Compound 248]", "Recombinant STAT3 protein (STAT3(G127-I722)) (Homo sapiens)", "1 to 10 µM"],
  ["CCC(=O)NCCCN(C)C(=O)[C@@H]1CC[C@@H]2CCN(C(C)=O)C[C@H](NC(=O)/C=C(\\C)c3ccc(C(F)(F)P(=O)(O)O)cc3)C(=O)N21 [Compound 25]", "Recombinant STAT3 protein (STAT3(G127-I722)) (Homo sapiens)", "> 10 µM"],
  ["COC(=O)N1CC[C@H]2CC[C@@H](C(=O)N3CCCC3)N2C(=O)[C@@H](NC(=O)c2cc3cc(C(F)(F)P(=O)(O)O)ccc3s2)C1 [Compound 262]", "Recombinant STAT3 protein (STAT3(G127-I722)) (Homo sapiens)", "1 to 10 µM"],
  ["CC(=O)N1CC[C@H]2CC[C@@H](C(=O)N(C)c3ccc(OC(F)(F)F)cc3)N2C(=O)[C@@H](NC(=O)c2cc3cc(C(F)(F)P(=O)(O)O)ccc3[nH]2)C1 [Compound 135]", "Recombinant STAT3 protein (STAT3(G127-I722)) (Homo sapiens)", "1 to 10 µM"]
]}

Now for a further compound.
Exercise: Endpoint output: IC50 of Cc1ccc2onc(C(=O)N3CC[C@H]4CC[C@@H](C(=O)N5CCOCC5)N4C(=O)[C@@H](NC(=O)c4cc(C#N)c5ccc(CP(=O)(O)O)cc5c4)C3)c2c1 [Compound 378] . Value?
Key: > 10 µM

====

System Tested: Recombinant STAT3 protein (STAT3(G127-I722)) (Homo sapiens, UniProt P40763)
Construct: Recombinant STAT3 protein (STAT3(G127-I722))
Sequence (P40763 127-722): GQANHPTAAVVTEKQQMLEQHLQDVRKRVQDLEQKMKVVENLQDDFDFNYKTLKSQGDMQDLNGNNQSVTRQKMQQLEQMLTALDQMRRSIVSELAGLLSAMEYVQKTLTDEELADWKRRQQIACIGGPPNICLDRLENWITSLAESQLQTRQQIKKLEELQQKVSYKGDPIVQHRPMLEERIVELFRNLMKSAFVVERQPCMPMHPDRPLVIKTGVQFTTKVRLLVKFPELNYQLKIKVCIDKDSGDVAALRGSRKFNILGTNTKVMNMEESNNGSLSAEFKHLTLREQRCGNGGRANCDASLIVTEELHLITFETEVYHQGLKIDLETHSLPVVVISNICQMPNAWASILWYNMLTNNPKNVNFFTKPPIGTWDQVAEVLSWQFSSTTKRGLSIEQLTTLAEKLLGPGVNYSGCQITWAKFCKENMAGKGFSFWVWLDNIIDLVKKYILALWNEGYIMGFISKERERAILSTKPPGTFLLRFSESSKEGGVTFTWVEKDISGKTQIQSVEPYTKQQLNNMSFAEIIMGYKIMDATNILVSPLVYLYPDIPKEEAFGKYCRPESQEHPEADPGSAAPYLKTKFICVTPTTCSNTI
Experimental Details: STAT3 Fluorescence Polarization (FP) Assay
Setup Conditions: STAT3(G127-I722) 25 nM, probe 5-FAM-GpYLPQTV-NH2 2 nM, 45-minute incubation
Readout Type: IC50

{"columns": ["Compound", "System Tested", "IC50"],
 "data": [
  ["O=C(N[C@H]1CNCC[C@H]2CC[C@@H](C(=O)N3CC(C(=O)N4CCOCC4)C3)N2C1=O)c1cc2cc(C(F)(F)P(=O)(O)O)ccc2s1", "Recombinant STAT3 protein (STAT3(G127-I722)) (Homo sapiens, UniProt P40763)", "100 to 1000 nM"],
  ["N#CC1CN(C(=O)C2CCC3CCS(=N)(=O)CC(NC(=O)c4cc5cc(C(F)(F)P(=O)(O)O)ccc5s4)C(=O)N32)CC1c1ccccc1 (single isomer, unassigned)", "Recombinant STAT3 protein (STAT3(G127-I722)) (Homo sapiens, UniProt P40763)", "1000 to 10000 nM"],
  ["NC(=O)[C@@H]1CN(C(=O)[C@@H]2CC[C@@H]3CCN(CC(F)F)C[C@H](NC(=O)c4cc5cc(C(F)(F)P(=O)(O)O)ccc5s4)C(=O)N32)C[C@H]1c1ccccc1 (single isomer, unassigned)", "Recombinant STAT3 protein (STAT3(G127-I722)) (Homo sapiens, UniProt P40763)", "100 to 1000 nM"],
  ["CC(C)CN1CC[C@H]2CC[C@@H](C(=O)N(C)C)N2C(=O)[C@@H](NC(=O)c2cc3cc(C(F)(F)P(=O)(O)O)ccc3[nH]2)C1", "Recombinant STAT3 protein (STAT3(G127-I722)) (Homo sapiens, UniProt P40763)", "1000 to 10000 nM"],
  ["CCC(=O)N(C)[C@@H]1CCN(C(=O)[C@@H]2CC[C@@H]3CCN(C(C)=O)C[C@H](NC(=O)c4cc5cc(C(F)(F)P(=O)(O)O)ccc5[nH]4)C(=O)N32)C1", "Recombinant STAT3 protein (STAT3(G127-I722)) (Homo sapiens, UniProt P40763)", "1000 to 10000 nM"],
  ["CC(=O)N1CC[C@H]2CC[C@@H](C(=O)N3CC(c4cn[nH]c4)[C@@H](C#N)C3)N2C(=O)[C@@H](NC(=O)c2cc3cc(C(F)(F)P(=O)(O)O)ccc3s2)C1 (relative stereo)", "Recombinant STAT3 protein (STAT3(G127-I722)) (Homo sapiens, UniProt P40763)", "1000 to 10000 nM"]
]}

Now for a further compound.
Exercise: Endpoint output: IC50 of `CC(=O)N1CC[C@H]2CC[C@@H](C(=O)N(C)c3ccccc3)N2C(=O)[C@@H](NC(=O)c2cc3cc(C(F)(F)P(=O)(O)O)ccc3s2)C1` . Value?
Key: 1000 to 10000 nM

====

System Tested: Recombinant STAT6 protein (STAT6(W123-T658)) (Homo sapiens)
Construct: Recombinant STAT6 protein (STAT6(W123-T658))
Sequence (P42226 123-658): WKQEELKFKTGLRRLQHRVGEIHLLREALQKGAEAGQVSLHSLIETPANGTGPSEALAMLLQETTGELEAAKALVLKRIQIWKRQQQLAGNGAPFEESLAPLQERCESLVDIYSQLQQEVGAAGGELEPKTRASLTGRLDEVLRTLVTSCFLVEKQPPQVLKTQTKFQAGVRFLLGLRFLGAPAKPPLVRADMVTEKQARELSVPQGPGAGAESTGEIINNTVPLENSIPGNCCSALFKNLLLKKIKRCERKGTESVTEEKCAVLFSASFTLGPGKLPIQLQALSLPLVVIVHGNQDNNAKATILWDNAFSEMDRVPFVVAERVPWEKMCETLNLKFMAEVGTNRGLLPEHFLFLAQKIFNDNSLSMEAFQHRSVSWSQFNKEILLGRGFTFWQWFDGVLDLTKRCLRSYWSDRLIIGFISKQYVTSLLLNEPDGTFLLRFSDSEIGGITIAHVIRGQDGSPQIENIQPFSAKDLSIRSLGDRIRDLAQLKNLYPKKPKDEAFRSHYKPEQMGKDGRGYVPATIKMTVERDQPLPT
Experimental Details: STAT6 Fluorescence Polarization (FP) Assay
Setup Conditions: STAT6(W123-T658) 250 nM, probe 5-FAM-ApYKPFQDLI-NH2 2 nM, 45-minute incubation
Readout Type: IC50

Worked set:
{"columns": ["Molecule", "IC50"],
 "data": [
  ["CC(=O)N1CC[C@H]2CC[C@@H](C(=O)Nc3ccc(-c4ccccc4)[nH]c3=O)N2C(=O)[C@@H](NC(=O)c2cc3cc(C(F)(F)P(=O)(O)O)ccc3[nH]2)C1 [Compound 180]", "300 to 3000 nM"],
  ["N#C[C@H]1CN(C(=O)[C@@H]2CC[C@@H]3CCN(CC(F)F)C[C@H](NC(=O)c4ccc5ccc(C(F)(F)P(=O)(O)O)cc5c4)C(=O)N32)CC[C@@H]1c1ccccc1 (relative stereo) [Compound 241]", "300 to 3000 nM"],
  ["CC(=O)N1CC[C@H]2CC[C@@H](C(=O)N3CCC(N(Cc4noc(C5CC5)n4)C(C)=O)C3)N2C(=O)[C@@H](NC(=O)c2cc3cc(C(F)(F)P(=O)(O)O)ccc3s2)C1 (some centres unmarked) [Compound 85]", "300 to 3000 nM"],
  ["N#C[C@@H]1CN(C(=O)[C@@H]2CC[C@@H]3CCS(=O)(=O)C[C@H](NC(=O)c4cc5cc(C(F)(F)P(=O)(O)O)ccc5s4)C(=O)N32)C[C@H]1c1ccccc1 (single isomer, unassigned) [Compound 8]", "≤ 300 nM"]
]}

Now for a further molecule.
Exercise: Fill in the recorded IC50 for this molecule, with Recombinant STAT6 protein (STAT6(W123-T658)) (Homo sapiens) as test system: CC(C)(CC(=O)N1CC[C@H]2CC[C@@H](C(=O)N3CC(c4cccnc4)C3)N2C(=O)[C@@H](NC(=O)c2cc3cc(C(F)(F)P(=O)(O)O)ccc3s2)C1)C1CCCCC1 [Compound 269]
Key: 300 to 3000 nM

====

Listing: IC50 of selected molecules
System Tested: Recombinant STAT6 protein (STAT6(W123-T658)) (Homo sapiens, UniProt P42226)
Construct: Recombinant STAT6 protein (STAT6(W123-T658))
Sequence (P42226 123-658): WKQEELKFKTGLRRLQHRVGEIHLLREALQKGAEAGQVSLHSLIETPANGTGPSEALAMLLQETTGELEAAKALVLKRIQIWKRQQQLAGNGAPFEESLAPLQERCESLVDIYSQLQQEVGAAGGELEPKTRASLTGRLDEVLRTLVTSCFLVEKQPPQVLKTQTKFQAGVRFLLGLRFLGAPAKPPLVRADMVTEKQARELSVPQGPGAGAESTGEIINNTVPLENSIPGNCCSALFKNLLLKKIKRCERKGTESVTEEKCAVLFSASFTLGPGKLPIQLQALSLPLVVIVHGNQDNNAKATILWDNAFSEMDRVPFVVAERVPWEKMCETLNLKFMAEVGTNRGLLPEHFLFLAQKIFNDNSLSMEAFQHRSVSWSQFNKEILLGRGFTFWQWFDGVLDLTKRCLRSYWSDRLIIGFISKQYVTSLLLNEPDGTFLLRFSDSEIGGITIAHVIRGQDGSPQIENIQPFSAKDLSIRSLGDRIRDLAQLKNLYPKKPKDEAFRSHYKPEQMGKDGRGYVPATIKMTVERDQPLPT
Experimental Details: STAT6 Fluorescence Polarization (FP) Assay
Setup Conditions: STAT6(W123-T658) 250 nM, probe 5-FAM-ApYKPFQDLI-NH2 2 nM, 45-minute incubation

Worked set:
{"columns": ["Molecule", "Readout Type", "Result"],
 "data": [
  ["CCN1CC[C@H]2CC[C@@H](C(=O)N3C[C@@H](C#N)[C@H](c4ccccc4)C3)N2C(=O)[C@@H](NC(=O)c2cc3cc(C(F)(F)P(=O)(O)O)ccc3s2)C1 (single isomer, unassigned)", "IC50", "0.3 to 3 µM"],
  ["CC(=O)N1CC[C@H]2CC[C@@H](C(=O)N3C[C@@H](C#N)[C@H](C4CCCCC4)C3)N2C(=O)[C@@H](NC(=O)c2cc3cc(C(F)(F)P(=O)(O)O)ccc3s2)C1 (relative stereo)", "IC50", "0.3 to 3 µM"],
  ["CCN1CC[C@H]2CC[C@@H](C(=O)N3C[C@@H](C#N)[C@H](c4ccccc4)C3)N2C(=O)[C@@H](NC(=O)c2cc3cc([C@H](F)P(=O)(O)O)ccc3s2)C1 (single isomer, unassigned)", "IC50", "≤ 0.3 µM"]
]}

Exercise: Fill in the recorded IC50 for this molecule, with Recombinant STAT6 protein (STAT6(W123-T658)) (Homo sapiens, UniProt P42226) as test system: `CNC(=O)[C@@H]1CC[C@@H]2CCN(C(=O)c3n[nH]c4ccc(C)cc34)C[C@H](NC(=O)c3ccc4ccc(C(F)(F)P(=O)(O)O)cc4c3)C(=O)N21`
Key: ≤ 0.3 µM

Exercise: Further, for N#Cc1cccc(C2CN(C(=O)[C@@H]3CC[C@@H]4CCN(Cc5ncccn5)C[C@H](NC(=O)c5cc6cc(C(F)P(=O)(O)O)ccc6s5)C(=O)N43)C2)n1 (stereo partly shown) ?
Key: 3 to 30 µM

Exercise: Further, for `CC(=O)N1CC[C@H]2CC[C@@H](C(=O)N(C)c3ccc(C(C)(C)C#N)cc3)N2C(=O)[C@@H](NC(=O)c2cc3cc(C(F)(F)P(=O)(O)O)ccc3s2)C1` ?
Key: 0.3 to 3 µM

Exercise: Further, for `CC(=O)N1CC[C@H]2CC[C@@H](C(=O)Nc3ccc4ncncc4c3)N2C(=O)[C@@H](NC(=O)c2cc3cc(C(F)(F)P(=O)(O)O)ccc3s2)C1` ?
Key: 0.3 to 3 µM

Exercise: Further, for `CC(=O)N1CC[C@H]2CC[C@@H](C(=O)N(C)c3ccccc3)N2C(=O)[C@@H](NC(=O)c2ccc3cc(C(F)(F)P(=O)(O)O)ccc3c2)C1` ?
Key: > 30 µM

Exercise: Further, for CC(=O)N1CC[C@H]2CC[C@@H](C(=O)N3CCC4(C3)C(=O)Nc3ccccc34)N2C(=O)[C@@H](NC(=O)c2cc3cc(C(F)(F)P(=O)(O)O)ccc3s2)C1 (stereo partly shown) ?
Key: 0.3 to 3 µM

Exercise: Further, for O=C(N[C@H]1CN(C(=O)c2cc3ncccn3n2)CC[C@H]2CC[C@@H](C(=O)N3CCOCC3)N2C1=O)c1ccc2ccc(C(F)P(=O)(O)O)cc2c1 (stereo partly shown) ?
Key: 0.3 to 3 µM
